Data provenance: paper PMC7534330

assay: Pharmacokinetics of five components in rat plasma after oral administration of RPT, LPT and HPT extracts (UHPLC-MS/MS); conditions: male, SD, in vivo, 1.9 g/kg, rat plasma, oral LPT extract equivalent to 1.9 g/kg of RPT extract, mean ± SD, n = 6, read-out: MRT0-t
readout.kind: MRT last (h)
One number for each entry, in h.

Need MRT last of `COc1cc(C=CC(=O)O)cc(OC)c1OC` , thanks.
3.56

---

assay: Pharmacokinetics of five components in rat plasma after oral administration of RPT, LPT and HPT extracts (UHPLC-MS/MS); conditions: male, SD, in vivo, 1.9 g/kg, rat plasma, oral RPT extract 1.9 g/kg, mean ± SD, n = 6, read-out: Tmax
readout.kind: Tmax
Respond with a number, then the unit of measure.

Need Tmax of `COc1cc(C=CC(=O)O)cc(OC)c1OC` , thanks.
7.8 min
